# Tested on: KM12 colon
# METHOD_NOTES: NCI-60 one-dose screen, 48 h (100 = growth as untreated, 0 = no growth, -100 = all killed)
# CONDITION_SUMMARY: 10 µM unless noted
Compounds without any hit were thinned out: in the full panel of roughly 83,000, 20% have a hit.
ENDPOINT_NAME: growth (%)
Reply with just the number (in %).

Solved cases (8 shown):
{"columns": ["COMPOUND", "ENDPOINT_NAME", "UNIT_OF_MEASURE", "EXPERIMENTAL_RESULT"],
 "data": [
  ["CCOC(=O)C1=C(C)N=c2s/c(=C\\c3ccccc3O)c(=O)n2C1c1ccc(OC)c2ccccc12 (stereo not given)", "growth", "%", 8.88],
  ["c1ccc(CNc2nc(Nc3ccccc3)nc3ccccc23)cc1", "growth", "%", 71.8],
  ["Cn1cc(-c2ccc3ncc(-c4ccc(CC(=O)Nc5cc(C(C)(C)C)no5)cc4)nc3c2)cn1", "growth", "%", 6.86],
  ["COc1ccc(-c2nc(N3CCN(C(=O)C4CCCCC4)CC3)c3c4c(sc3n2)CCCC4)cc1", "growth", "%", -46.4],
  ["CC(=O)SC1CC(=O)C=C2CCC3C4CCC(=O)OC4(C)CCC3C21C (stereo not given)", "growth", "%", 104],
  ["CCn1c(-c2nonc2Nc2ccc(OC)cc2)nc2ccccc21", "growth", "%", 106],
  ["CCCCCCc1cc2cc(-c3csc(/C=C/c4ccccc4)n3)c(=O)oc2cc1O", "growth", "%", 15.8],
  ["Nc1ccccc1-c1ccc(-c2ccc(Cl)cc2)c2c1[nH]c1ccccc12", "growth", "%", 66.6]
]}

Query: Using the record for "COc1ccccc1C(=O)O/N=C(\N)Cc1cccc2ccccc12" , state its measured growth.
Response: 87.9

Query: Using the record for "O=C(NC1CCN(Cc2ccccc2)CC1)c1cc2nc(-c3ccc(Cl)s3)cc(C(F)(F)F)n2n1" , state its measured growth.
Response: 37.1
